Attribution: patent US8703811B2

System: P. falciparum Dd2
ASSAY_PROCEDURE: Inhibition of in vitro P. falciparum culture, [3H]-hypoxanthine uptake, Dd2
Format: cell-based
CONDITION_NOTES: Plasmodium falciparum, DD2, Table 3; [3H]-hypoxanthine uptake; read-out: Dd2 IC50
MEASURED_PARAMETER: pIC50
Quick note: pIC50 means taking -log10 of the concentration in moles per liter.

CCCNC(=O)c1ccc(-n2cnc3ccccc32)s1; 6.02

Now, please, on to the next molecule.
Q. If you can, please state the reported pIC50 value of CCCNC(=O)c1ccc(-n2c(C)cc3ccccc32)s1 .
A. 6.60

###

Test system: P. falciparum Dd2
ASSAY_PROCEDURE: Inhibition of in vitro P. falciparum culture, [3H]-hypoxanthine uptake, Dd2
Assay type: cell-based
CONDITION_NOTES: Plasmodium falciparum, DD2, Erythrocyte, [3H]-hypoxanthine uptake by parasite infected erythrocytes; read-out: Dd2 IC50
MEASURED_PARAMETER: IC50

Example entries begin here.
CCCNC(=O)c1ccc(-n2c(C)cc3ccccc32)s1 [Compound 1]; 290 nM
Cc1ccccc1/C=C/c1cc(O)c2ccccc2n1 [Compound 2]; 250 nM
CCc1nc(N)nc(N)c1-c1ccc(Cl)cc1 [Pyrimethamine, reference compound]; > 10000 nM
O=C1C(O)=C([C@H]2CC[C@H](c3ccc(Cl)cc3)CC2)C(=O)c2ccccc21 [Atovaquone, reference compound]; 0.2 nM
Fc1cc(I)ccc1Nc1ccnc2cc(Cl)ccc12 [Compound 4]; 2300 nM
CCOC(=O)c1[nH]c(C)c(Cc2ccc(OCC)cc2)c1C [Compound 6]; 440 nM

Q. What does the record list as IC50 for O=C(NC1CC1)c1ccc(N2CCSc3ccccc32)s1 [Compound 5] ?
A. 620 nM

Q. Requested read-out: IC50. Entry: CCCCCC1CCCc2c1nc1ccccc1c2O (centres unmarked) [Compound 3]
A. 230 nM

###

ASSAY_PROCEDURE: Solubility measurement
Type: physicochemical
CONDITION_NOTES: aqueous buffer, thermodynamic from solid; read-out: Solubility
MEASURED_PARAMETER: solubility

Consider the worked cases shown below.
CCCNC(=O)c1ccc(-n2c(C)cc3ccccc32)s1; 0.9 µg/mL
CCCNC(=O)c1ccc(-n2cnc3ccccc32)s1; > 30 µg/mL
CCCNC(=O)c1ccc(-n2c(C)nc3ccccc32)s1; > 30 µg/mL
CCCNC(=O)c1ccc(N2CCCCC2)s1; > 30 µg/mL
CCCNC(=O)c1ccc(N2CCN(C)CC2)s1; 24 µg/mL

Proceed to the following item.
Q. Recorded solubility of CCCNC(=O)c1ccc(-n2cccn2)s1 , please.
A. > 30 µg/mL

###

Known pIC50 of a selection of compounds
ASSAYED_SYSTEM: pfDHODH (Plasmodium falciparum (isolate 3D7))
Sequence (Q08210 159-565 limits assumed): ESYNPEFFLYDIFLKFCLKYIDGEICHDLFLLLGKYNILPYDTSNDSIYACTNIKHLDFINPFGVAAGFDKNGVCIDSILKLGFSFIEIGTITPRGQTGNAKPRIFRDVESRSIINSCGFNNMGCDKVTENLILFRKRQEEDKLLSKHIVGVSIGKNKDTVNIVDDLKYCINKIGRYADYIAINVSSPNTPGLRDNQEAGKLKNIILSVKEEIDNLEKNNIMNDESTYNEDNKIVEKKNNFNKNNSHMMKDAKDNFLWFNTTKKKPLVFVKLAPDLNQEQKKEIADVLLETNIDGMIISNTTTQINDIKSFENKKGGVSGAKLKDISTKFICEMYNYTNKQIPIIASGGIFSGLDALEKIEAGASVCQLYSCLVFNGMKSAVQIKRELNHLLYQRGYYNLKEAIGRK
ASSAY_PROCEDURE: DHODH chromogen reduction (DCIP) assay, pfDHODH
Type: biochemical, P. falciparum
CONDITION_NOTES: Table 2b; read-out: pfDHODH IC50
Field pIC50 (float): negative decimal logarithm of the concentration in molar.

Q. Request the reported pIC50 associated with CCNC(=O)c1ccc(-n2c(CC)nc3cc(F)ccc32)s1
A. 6.75

Q. Fill in: pIC50 of Cc1nc(-c2ccccc2)cn1-c1ccc(C(=O)NC2CC2)s1 is ___
A. 6.66

Q. What pIC50 value was documented for this compound, CCCNC(=O)c1ccc(-n2cnc3cc(Cl)ccc32)s1 ?
A. 6.49

Q. Which measured pIC50 value corresponds to CCNC(=O)c1ccc(-n2c(CC)nc3ccccc32)s1 ?
A. 6.86
